// data source = PubChem BioAssay AID2501

assayText: counter assay for TAg ATPase ADP read-out – biochemical, ADP-Hunter, fluorescence, counter-screen (AID 2501);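 also: purified T antigen ATPase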
measurementConditions: series mostly up to 100 µM
In all, about 2,200 compounds went through this assay and about 1,200 (55%) were called active. The set was probably picked from earlier hits. The list shows a part of the results.
metric: IC50

Some solved cases for reference:
compound=COc1ccc(N2C(=O)/C(=C/c3ccc(C)o3)C(=O)NC2=S)c(OC)c1 recordedresult=inactive
compound=O=C1NC(=O)N(c2cccc(Cl)c2)C(=O)/C1=C\c1ccc(Sc2nc3ccccc3[nH]2)o1 recordedresult=inactive
compound="CC(Cc1ccccc1Sc1ccc(O)cc1)N(C)C (configuration not stated)" recordedresult="1.99 µM (active)"
compound=COc1ccc(/C=C2/C(=O)NC(=O)N(Cc3ccco3)C2=O)cc1 recordedresult=inactive
compound=C[CH2][Hg][S]c1ccccc1C(=O)O recordedresult=inactive

Here's the next entry for you.
**Q:** I'd like to know its IC50. The compound in question is `Cc1cc(/C=C2\C(=O)NC(=O)N(c3ccc(Cl)cc3)C2=O)c(C)n1-c1sc2c(c1C#N)CCCC2`
**A:** inactive

###

assayText: counter assay for TAg ATPase ADP read-out – biochemical, ADP-Hunter, fluorescence, counter-screen (AID 2501);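 also: purified T antigen ATPase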
measurementConditions: series mostly up to 100 µM
Among all 2,200 compounds or so, about 1,200 (55%) were called active. The limit is not given here; nearly all actives have IC50 up to about 92 µM. So high a share suggests a set chosen from earlier hits. This is one part of the list.
Result category, one only: true (1) = active, false (0) = inactive

**Q:** Record lookup: outcome of this test for `O=C(CN1CCCC1=O)N1CCOCC1` ?
**A:** false (0)

**Q:** Entry `COc1cc2c(cc1OC)-c1c(OC)c(OC)cc3c1[C@H](C2)[N+](C)(C)CC3` : call = ?
**A:** false (0)

**Q:** Dear all, I need the recorded test outcome for `NCCc1c[nH]c2ccc(O)cc12` , thank you.
**A:** true (1)

**Q:** Recorded call for `Oc1ccc(C[C@H]2NCCc3cc(O)c(O)cc32)cc1O` ?
**A:** false (0)

**Q:** Hey, what did the test say about `C[C@]12CC[C@@H]3c4ccc(O)c(O)c4CC[C@H]3[C@@H]1CC[C@@H]2O` ?
**A:** false (0)

**Q:** Just curious, what result did `Cc1ccc2c(c1)=NC(=O)/C(=C/c1c(O)[nH]c(=O)[nH]c1=O)C=2` get here?
**A:** false (0)

**Q:** Recorded call for `COc1cc2c(ccc3cc(OC)c(OC)c(O)c32)cc1O` ?
**A:** true (1)

**Q:** GET /call?item= CCN(CC)C(=O)c1ccc2c(c1)C1C(Cl)C(Sc3ccccc3[N+](=O)[O-])CC1C(C(=O)O)N2 (stereo not given) returns the recorded outcome of this test.
**A:** false (0)

**Q:** Fill in: this test's call for `CN1CCN(/N=C/c2c[nH]c3ccccc23)CC1` is ___
**A:** true (1)

**Q:** Tell me the recorded outcome of this test for `Nc1ccc2c(c1)Cc1ccccc1-2` .
**A:** true (1)

###

assayText: counter assay for TAg ATPase ADP read-out – biochemical, ADP-Hunter, fluorescence, counter-screen (AID 2501);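 also: purified T antigen ATPase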
measurementConditions: series mostly up to 100 µM
The campaign covered roughly 2,200 compounds. About 1,200 (55%) were called active. No cut-off is given here; in the data, nearly all actives have IC50 up to about 92 µM. The set was probably picked from earlier hits. The list shows a part of the results.
Please state which outcome applies, choosing from TRUE for active, FALSE for inactive

**Q:** Recorded call for `O=c1c(O)c(-c2ccc(O)c(O)c2)oc2cc(O)cc(O)c12` ?
**A:** TRUE

**Q:** Kindly provide the recorded test outcome for the following molecule: `O=C(O)c1cc[c]([Hg][Cl])cc1`
**A:** FALSE

**Q:** Entry `O=C(O)CCC(=O)NCCC1=c2ccccc2=N/C1=C\c1c(O)n(Cc2ccc(F)cc2)c(=S)[nH]c1=O` : call = ?
**A:** FALSE

**Q:** Record request — test call for O=c1cc(-c2ccc(O)c(O)c2)oc2c(C3O[C@H](CO)[C@@H](O)[C@H](O)[C@H]3O)c(O)cc(O)c12 (some centres not stated)
**A:** TRUE

**Q:** Could you please tell me the result logged for `CCN(CC)c1ccc(N=Cc2c(O)n(-c3ccccc3C)c(=O)[nH]c2=O)cc1` in this assay?
**A:** TRUE

**Q:** Could you kindly confirm the outcome this assay logged for `Cc1ccc2c(c1)=C/C(=C\c1c(O)[nH]c(=O)[nH]c1=O)C(=O)N=2` ?
**A:** FALSE

**Q:** Test call, this molecule: `NC(N)=Nc1ccc2[nH]c3c(c2c1)C[C@@]1(O)[C@H]2Cc4ccc(O)c5c4[C@@]1(CCN2CC1CC1)[C@H]3O5`
**A:** FALSE

**Q:** Can you look up the reported call for `Cc1ccc(N2C(=O)NC(=O)/C(=C\C=C\c3ccco3)C2=O)cc1C` for me?
**A:** FALSE

**Q:** What call does the record list for `COc1ccc(N2C(=O)/C(=C/c3ccco3)C(=O)NC2=S)cc1` ?
**A:** FALSE

**Q:** Name the outcome recorded for `CCN(CC)c1ccc(N=Cc2c(O)n(-c3cc(OC)ccc3OC)c(=O)[nH]c2=O)cc1` in the assay.
**A:** TRUE

**Q:** Give the logged outcome of this assay for the following molecule: `CCN1CCN(c2ccc(N)cc2C)CC1`
**A:** TRUE

**Q:** Hi, sorry to bother you, what did the test record for `CN1C(=O)/C(=C/C=C/c2ccco2)C(=O)NC1=S` ?
**A:** FALSE

###

assayText: counter assay for TAg ATPase ADP read-out – biochemical, ADP-Hunter, fluorescence, counter-screen (AID 2501);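 also: purified T antigen ATPase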
measurementConditions: series mostly up to 100 µM
Hit rate of the full screen: of about 2,200 compounds, about 1,200 (55%) were called active. No cut-off is given here; in the data, nearly all actives have IC50 up to about 92 µM. The set was probably picked from earlier hits. Some of the results follow.
Permitted responses: Y = active, N = inactive

**Q:** Test call for this compound, please: `O=C1NC(=O)N(CCc2ccc(F)cc2)C(=O)/C1=C/c1ccco1`
**A:** N

**Q:** Name the outcome recorded for `CC1=NCCc2c1[nH]c1cc(O)ccc21` in the assay.
**A:** Y

**Q:** Write down the call the test reported for this compound. Item: `O=C1NC(=O)C(=Cc2ccccc2OCCOc2ccc([N+](=O)[O-])cc2)C(=O)N1`
**A:** N

**Q:** Each compound tested received a call. Report the one for `O=C(c1ccc2nc(-c3ccco3)c(-c3ccco3)nc2c1)N1CCC2(CC1)OCCO2` .
**A:** N

**Q:** Outcome? `O=c1[nH]c(=S)n(C2CC2)c(O)c1/C=N/Nc1ccccc1`
**A:** Y

**Q:** Hey, what did the test say about `CCc1c(C)nc(N)nc1N1N=C1SC(C(C)=O)C(C)=O` ?
**A:** N

**Q:** Answer briefly: the call reported for `CCCN1CCc2cc(O)cc3c2[C@H]1Cc1ccc(O)c(O)c1-3` in this assay.
**A:** N

**Q:** Short answer needed: outcome of this test for `O=C1NC(=O)N(c2ccccc2)C(=O)/C1=C\c1ccc2c3c(cccc13)CC2` ?
**A:** N

**Q:** Query: recorded result category for `NS(=O)(=O)c1ccc(-c2ccc(C=C3C(=O)NC(=S)NC3=O)o2)cc1` in this test
**A:** N

**Q:** What did the test return for `CC(C)Nc1ccc(Nc2ccccc2)cc1` ?
**A:** Y

**Q:** Field: outcome | Entry: `O=C1NC(=S)NC(=O)C1=Cc1cccn1-c1ccc(O)cc1`
**A:** N

**Q:** Any idea what this test logged for `CN1C(=O)/C(=C/c2cccn2-c2ccc3ccccc3c2)C(=O)NC1=S` ?
**A:** N

**Q:** What was the test verdict on `COc1cc(C=C2C(=O)NC(=O)NC2=O)ccc1O` ?
**A:** Y

**Q:** Answer briefly: the call reported for `COC(=O)C1=Nc2ccccc2/C1=C\c1c(O)n(-c2ccc(OC)cc2)c(=O)[nH]c1=O` in this assay.
**A:** N

**Q:** For this compound, state the assay outcome: `COc1cccc(N2C(=O)NC(=O)/C(=C\c3ccc([N+](=O)[O-])s3)C2=O)c1`
**A:** N

**Q:** Tell me the assay call for `CN1CCc2cc(O)cc3c2[C@H]1Cc1ccc(O)c(O)c1-3` please.
**A:** N

**Q:** What is the recorded call for this compound in the test? `N#CSCC(=O)N1c2ccccc2CCc2ccccc21`
**A:** N

**Q:** Tell me the recorded outcome of this test for C=C(C=O)CC1CC(O)[C@]2(C)OC3CC4OC5C[C@]6(C)O[C@]7(C)CCC8OC9C[C@]%10(C)OC%11C(C)=CC(=O)OC%11CC%10OC9C[C@@H](C)C8OC7CC6O[C@]5(C)CC5OC5C4OC3CC2O1 (stereo partly specified) .
**A:** N

**Q:** Which outcome did this test record for the compound `Oc1ccc(/C=N/NP(=S)(c2ccccc2)c2ccccc2)cc1O` ?
**A:** Y

**Q:** Answer briefly: the call reported for `COc1ccc(CN2C(=O)NC(=O)/C(=C/c3ccoc3)C2=O)cc1` in this assay.
**A:** N

**Q:** Could you please tell me the result logged for `CNC(=O)Oc1ccc(-c2cn3cc(Cl)ccc3n2)cc1` in this assay?
**A:** N

**Q:** What is the recorded call for this compound in the test? `CN(c1ccc(OCC(=O)N2CCN(C/C=C/c3ccccc3)CC2)cc1)S(=O)(=O)c1cccs1`
**A:** N

**Q:** Hello, I am checking results. What call was entered for `Cc1ccccc1N1C(=O)NC(=O)/C(=C\c2cnn(-c3ccccc3)c2)C1=O` ?
**A:** N

**Q:** Per the records of this test, what outcome belongs to `C1=Cc2ccccc2Nc2ccccc21` ?
**A:** Y

**Q:** Test call, this compound: `O=C1NC(=O)N(c2ccccc2F)C(=O)/C1=C/c1ccc(Sc2nc3ccccc3[nH]2)o1`
**A:** N

**Q:** What did this assay record as the result for `O=C1NC(=O)C(=Cc2ccc(-c3ccc(F)cc3O)o2)C(=O)N1` ?
**A:** N

**Q:** For `N/C(=N\N=C\c1ccc(O)cc1O)N[N+](=O)[O-]` , which call appears in the assay record?
**A:** Y

**Q:** What classification did `CN(C)[C@@H]1C(=O)C(C(N)=O)=C(O)[C@@]2(O)C(=O)C3=C(O)c4c(O)cccc4[C@@](C)(O)[C@H]3C[C@@H]12` end up with in this test?
**A:** N

**Q:** Write down the call the test reported for this compound. Item: `COc1cc(/C=C2\C(=O)NC(=O)N(CCc3ccc(F)cc3)C2=O)ccc1O`
**A:** Y

**Q:** For this compound, state the assay outcome: `O=C1NC(=O)N(c2ccc(Cl)cc2)C(=O)/C1=C\c1ccc(Sc2nc3ccccc3[nH]2)o1`
**A:** N

**Q:** Kindly provide the recorded test outcome for the following compound: `N/C(=N\N=C/c1ccc(-c2ccc(O)c(C(=O)O)c2)o1)N[N+](=O)[O-]`
**A:** N

**Q:** What call does the record list for `CN1C2CCC1CC(=NO)C2` ?
**A:** N

**Q:** What classification did `COc1cc2c(cc1O)CC[n+]1cc3c(OC)c(OC)ccc3cc1-2` end up with in this test?
**A:** Y

**Q:** What outcome does the record of this test show for CCCNC(=O)N1C2CCC1CC(O)(c1cccnc1)C2 (stereo unspecified) ?
**A:** N

**Q:** So what was the verdict on CP(=O)(Nc1ccccc1)C(Cl)(Cl)Cl (stereo unspecified) in this test?
**A:** N

**Q:** Returns: the outcome recorded for `O=C1NC(=O)C(=Cc2cc3c(cc2[N+](=O)[O-])OCO3)C(=O)N1` in this assay.
**A:** N
